target: DNA-3-methyladenine glycosylase (Homo sapiens) (UniProt P29372); conditions: Compound Concentration 10.0 uM, Hit No
Sequence (P29372 whole entry): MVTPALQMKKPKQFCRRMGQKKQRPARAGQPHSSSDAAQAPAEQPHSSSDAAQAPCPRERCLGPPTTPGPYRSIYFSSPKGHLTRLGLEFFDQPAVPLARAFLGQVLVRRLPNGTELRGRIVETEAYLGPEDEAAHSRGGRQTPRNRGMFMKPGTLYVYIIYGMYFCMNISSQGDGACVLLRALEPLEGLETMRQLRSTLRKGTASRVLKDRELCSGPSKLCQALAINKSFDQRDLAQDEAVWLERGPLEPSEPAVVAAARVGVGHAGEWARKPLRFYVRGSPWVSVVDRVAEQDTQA
Description: Inhibition of MPG by quantifying inhibition of MPG-mediated cleavage and dissociation of quenched duplex DNA oligonucleotides, measured as fluorescence at 594 nm. To generate a functional strand incision and increase turn-over this assay is coupled to APE1.
# reported inhibition; entries follow
State the answer as a number, implicitly in %.

Ask: // map COc1ccc(-n2nc3c4ccccc4[nH]cc-3c2=O)cc1 to recorded inhibition (system: DNA-3-methyladenine glycosylase (Homo sapiens) (UniProt P29372))
Result: -3.24

Ask: // map CC1(C)CN2C(CS/C(=N\C3CCCCC3)NC3CCCCC3)=CSC2=N1 to recorded inhibition (system: DNA-3-methyladenine glycosylase (Homo sapiens) (UniProt P29372));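 further: enzyme assay where MPG cuts a quenched duplex DNA oligonucleotide probe, paired with APE1 for strand incision and turnover, read as fluorescence at 594 nm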
Result: 8.86

* * *

biological target: Methyl-CpG-binding domain protein 4 (Homo sapiens) (UniProt O95243); conditions: Compound Concentration 10.0 uM, Hit No;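 further: MBD4 activity read as fluorescence at 594 nm from cleavage and release of a quenched duplex DNA oligonucleotide, with APE1 coupled to incise the strand and raise turnover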
Sequence (O95243 whole entry, the tested form may be a part): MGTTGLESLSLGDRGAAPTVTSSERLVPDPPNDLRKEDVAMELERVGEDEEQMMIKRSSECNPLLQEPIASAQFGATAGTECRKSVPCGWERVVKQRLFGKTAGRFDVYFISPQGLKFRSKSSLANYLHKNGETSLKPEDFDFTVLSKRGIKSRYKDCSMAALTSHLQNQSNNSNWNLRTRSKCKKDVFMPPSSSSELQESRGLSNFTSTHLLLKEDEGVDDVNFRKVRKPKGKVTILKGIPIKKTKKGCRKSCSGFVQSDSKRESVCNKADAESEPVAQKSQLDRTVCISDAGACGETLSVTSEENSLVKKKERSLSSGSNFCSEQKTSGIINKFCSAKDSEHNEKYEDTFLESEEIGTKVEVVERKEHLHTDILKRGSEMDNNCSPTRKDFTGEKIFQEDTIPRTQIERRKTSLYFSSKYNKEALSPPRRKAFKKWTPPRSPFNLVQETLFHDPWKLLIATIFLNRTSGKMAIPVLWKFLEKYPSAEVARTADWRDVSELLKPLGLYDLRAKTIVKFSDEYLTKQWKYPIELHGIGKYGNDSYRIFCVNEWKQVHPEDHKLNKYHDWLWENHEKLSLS
Description: Inhibition of MBD4 by quantifying inhibition of MBD4-mediated cleavage and dissociation of quenched duplex DNA oligonucleotides, measured as fluorescence at 594 nm. To generate a functional strand incision and increase turn-over this assay is coupled to APE1.
Tag: Met if measured inhibition is not below 10%, Not met if it is.

Example entries begin here.
compound	target.or.test.system	discrete.label
CN1CCC(=C2c3ccccc3CC(=O)c3sccc32)CC1	Methyl-CpG-binding domain protein 4 (Homo sapiens) (UniProt O95243)	Not met
Cc1cn([C@H](C)CC#N)c(=O)c2cc(Cn3nc(C(F)F)cc3Cl)nn12	Methyl-CpG-binding domain protein 4 (Homo sapiens) (UniProt O95243)	Met
COc1nc2ccc([C@@](O)(c3ccccc3)C3CCN(C(C)=O)CC3)cc2c(Cl)c1Cc1ccc(-n2cccn2)cc1	Methyl-CpG-binding domain protein 4 (Homo sapiens) (UniProt O95243)	Met
CN1C2CCCC1CC(Nc1ccccc1Br)C2 (stereo not drawn)	Methyl-CpG-binding domain protein 4 (Homo sapiens) (UniProt O95243)	Met
CC[C@@H](Nc1c(C#N)c(-c2ccc(-c3cccc(C)c3F)cc2)nc2cnccc12)C(=O)O	Methyl-CpG-binding domain protein 4 (Homo sapiens) (UniProt O95243)	Met
COc1cc(C(C)C)c(Oc2cnc(NC(CO)CO)nc2N)cc1I	Methyl-CpG-binding domain protein 4 (Homo sapiens) (UniProt O95243)	Not met
COc1ccc(CNC(=O)c2cc(-c3cncc(Cl)c3)cnc2-c2ccccn2)nc1OC	Methyl-CpG-binding domain protein 4 (Homo sapiens) (UniProt O95243)	Not met
O=C1C[C@@H]2OCC=C3CN4CC[C@]56c7ccccc7N1[C@H]5[C@H]2[C@H]3C[C@H]46	Methyl-CpG-binding domain protein 4 (Homo sapiens) (UniProt O95243)	Met

Ask: I'd appreciate it if you could say whether Clc1cccc(-n2nnnc2NCc2ccccc2Oc2ccccn2)c1Cl has inhibition at least equal to 10%.
Result: Not met

Ask: I'd appreciate it if you could say whether COc1ccc(NC(=O)[C@@H]2C[C@H](C)CC[C@H]2C(C)C)cc1 has inhibition at least equal to 10%.
Result: Not met

Ask: I'd appreciate it if you could say whether CC(C)C[C@@H](C(=O)N[C@@H](Cc1ccc(OCc2ccccc2)cc1)C(=O)NC(C)(C)C)N(C)Cc1ccc(C(C)(C)C)cc1 has inhibition at least equal to 10%.
Result: Met

Ask: I'd appreciate it if you could say whether NC(=O)c1cc(-c2ccc(S(=O)(=O)[C@H]3CC[C@H](Nc4ccc(C(F)(F)F)cn4)CC3)cc2)ccn1 has inhibition at least equal to 10%.
Result: Met

Ask: I'd appreciate it if you could say whether CO[C@@H](C)c1c(Nc2ccc([C@@H](N(C)C(=O)C3CCS(=O)(=O)CC3)C(F)(F)F)cc2)cnc2cc(Cl)nn12 has inhibition at least equal to 10%.
Result: Met

Ask: I'd appreciate it if you could say whether Oc1ccc2c3c1O[C@H]1c4[nH]c5c(c4C[C@@]4(O)[C@@H](C2)N(CC2CC2)CC[C@]314)C[C@@]1(O)[C@H]2Cc3ccc(O)c4c3[C@@]1(CCN2CC1CC1)[C@H]5O4 has inhibition at least equal to 10%.
Result: Not met

Ask: I'd appreciate it if you could say whether O=C(O)Cc1cccc(OCCCN(Cc2cccc(C(F)(F)F)c2Cl)CC(c2ccccc2)c2ccccc2)c1 has inhibition at least equal to 10%.
Result: Met

Ask: I'd appreciate it if you could say whether C[C@@H]1CN(c2cc(-c3n[nH]c4ccc(OC5(C)CC5)cc34)ncn2)C[C@H](C)O1 has inhibition at least equal to 10%.
Result: Met

Ask: I'd appreciate it if you could say whether CSc1cc2c(cc1C(F)(F)F)N(C(=O)Nc1cccnc1)CC2 has inhibition at least equal to 10%.
Result: Not met

Ask: I'd appreciate it if you could say whether COc1cccc(-c2c(C)n(Cc3c(F)cccc3C(F)(F)F)c(=O)n(C[C@H](NCCCC(=O)O)c3ccccc3)c2=O)c1F has inhibition at least equal to 10%.
Result: Not met
